Test system: MS2 coat protein
method-summary: apparent KD of MS2 coat protein; designed switch direction (-1 OFF switch, 1 ON switch): -1; higher = weaker reporter binding
recorded-conditions: Eterna round: R95; input ligand: FMN 200 uM
metric: apparent KD of MS2 coat protein (nM)
Give bare numbers, in nM.

// below: answered sequences
AAGAAACAUGAGGAUCACCCAUGUGAGGAUAUGAAAAAGAAAAGAAAAGAAAGAAGGGUCAGAAGGCACAAAGG [salish99-ex1_r3_028] (puzzle: Exclusion 1)    24
UUUAAUUUUUUUUUUUUACAAGCUUUUUGCUCGUCUUAUACAUGAGGAUCACCCAUGUGGGUAGGAGGUAAAUUAUC [JMF 72] (puzzle: Sensor v3, turn-off variant 2)    32.5

Query :: Give apparent KD of MS2 coat protein (MS2 coat protein) of the following sequence: AAAAUGUAAGGAUAUAGCCGGAACCCAGGGUCAAUACCCGGCUAGAAGGUACAUGAGGAUCACCCAUGUAAGAA [Excls4-VI] (puzzle: Exclusion 4)
Result :: 21.6

----------
Tested on: MS2 coat protein
method-summary: apparent KD of MS2 coat protein, switch OFF state (with FMN for OFF switches, without FMN for ON switches); designed switch direction (-1 OFF switch, 1 ON switch): 1; higher = weaker reporter binding
recorded-conditions: FMN input: 0 or 200 uM; Eterna round: R93 (includes R88 designs)
Field: apparent KD of MS2 coat protein. Provide a value for each of the sequences that follow.
Answers are plain numbers, in nM.

// below: answered sequences
GAGGACAUAGUACAGGAUAUAUGAAUAGUUACAUGAGGAUCACCCAUGUGCAUUUAUAUGCGCACAUAGAAGGGUGGUAGUUAUC [SameState2 Malc#29]    33.5
AGGAGACAUGAGGAUCACCCAUGUGAGAAGAGGCGAGGAUAUCGAAAGAAAGAAGAGAAACGAGAAGGCGCGAGCG [salish99-SS1-028]    34.3
GAACCACAUGAGGAUCACCCAUGUCUAAGAAAUUAAGGAUAUGCACAAAAGGAAAUAACUGCAGAAGGUAAACGAA [Redo]    33.1
UAACUACAUGAGGAUCACCCAUGUCAAAUAAAUCGAGGAUAUGGGACGCAAAACGUCUGACCAGAAGGCGAAACAA [Maquriceri]    132
GUGAGGAAGAGAGAGGAUAUCCAAAGGAAAACAUGAGGAUCACCCAUGUAAAAGGUAGGAAAUUGGGAGAAGGCUCAAGAGAGAG [salish99-ss2-067]    34.7

We now examine a further sequence.
Query :: Entry GGGAGACAUGAGGAUCACCCAUGUGAGAAGAGGCGAGGAUAUCGAAAGAAAGAAGAGAAACGAGAAGGCGCGAGAC [salish99-SS1-061] : reported apparent KD of MS2 coat protein = ?
Result :: 45.1

----------
Field: apparent KD of MS2 coat protein. Provide a value for each of the sequences that follow.
Test system: MS2 coat protein
method-summary: apparent KD of MS2 coat protein; designed switch direction (-1 OFF switch, 1 ON switch): -1; higher = weaker reporter binding
recorded-conditions: Eterna round: R95; input ligand: FMN 200 uM

// below: answered sequences
AGUAGGUCUACCUUGGUGGAUCUGCAUUUAUGCAGGUGUACAUGAGGAUCACCCAUGUCCUCAUUUGCUCGUCUUAU [JL turnoff v2 99.27] (puzzle: Sensor v3, turn-off variant 2)    400 nM
GGUCUGCGAGGAUAUACAUGAGGAUCACCCAUGUGCGAGAUACUAGUGAGGUCGAUUGGUAGAAGGCGCGGACG [JL-ex3-2.06 salish99 mod] (puzzle: Exclusion 3)    182 nM
AGAGUACAUGAGGAUCACCCAUGUCAGGAUAUGCAGAAGAAGAAGAAGAGAAGAGAGAGCAGAAGGGACAAGAG [Ex 1 M2] (puzzle: Exclusion 1)    41.1 nM
AGAUGACUGGAGGAUAUCCGAUGCUUCCUGCCAGGAGAAGGCCGGACAUGAGGAUCACCCAUGUGGUGAGCUCG [Vezaatinle] (puzzle: Exclusion 6)    329 nM

We now examine a further sequence.
Query :: Give apparent KD of MS2 coat protein (MS2 coat protein) of the following sequence: GGUUGGCGAGGAUAUACAUGAGGAUCACCCAUGUGAGAAUUAAAAGUGAGGAAGAAAAGUAGAAGGCGCUGACG [Mat - Exclusion 3 - Mod of Salish D4] (puzzle: Exclusion 3)
Result :: 304 nM
